Numbers sourced from paper PMC7826789.

Tested on: MAP4K3;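 note: KINOMEscan scanMAX binding as percent activity remaining versus control; lower means stronger binding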
experimental_conditions: Compound Concentration (nM):1000
Quick reference: Percent Control of the listed items.
Field format: number, assumed %, no unit text.

INSERT INTO measurements (molecule, output_unit, reported_result) VALUES
  ('Cl.O=C(O[C@H]1CN[C@H](C#Cc2cc3ncnc(Nc4ccc5c(cnn5Cc5ccccc5)c4)c3s2)C1)N1CCOCC1 [GSK200398A]', '%', 100),
  ('NS(=O)(=O)c1ccc(Nc2ncc(-c3ccccc3)o2)cc1 [GW572399X]', '%', 100),
  ('Cl.O=C(Nc1ccc(Oc2ccc3[nH]c(NC(=O)c4ccccc4)nc3c2)cc1)Nc1cc(C(F)(F)F)ccc1F [GW709042A]', '%', 100),
  ('COc1cc(/C=N/Nc2ncnc3[nH]ncc23)ccc1O [GW578748X]', '%', 100);

Qu. Consider the molecule NS(=O)(=O)c1ccc(N/N=C2\C(=O)Nc3ccc(C(=O)NCCc4c[nH]cn4)cc32)cc1 [GW300660X] and give its measured Percent Control.
Ans. 86

Qu. Also C[C@@H](Oc1cc(-n2cnc3ccc(OC4CCN(C)CC4)cc32)sc1C(N)=O)c1ccccc1Cl [GSK579289A] , if possible.
Ans. 93

Qu. Also CCn1c(-c2nonc2N)nc2c(C#CC(C)(C)O)nc(OCCNC)cc21.Cl , if possible.
Ans. 100

Qu. Also COc1cccc(-n2ncc3c(N/N=C/c4ccncc4)ncnc32)c1 [GW784752X] , if possible.
Ans. 100
